Assay: Cytotoxicity against mouse BV-2 cells assessed as inhibition of cell growth measured after 24 hrs by MTT assay
Assay type: toxicity, cell-based
Measured Property: IC50 at 24 h (µM)
# output: bare number, implied unit µM

A selection of reference data follows.
N#Cc1cc(Br)cc(NC(=O)Cn2c(-c3nonc3N)nc3ccccc32)c1 :: 27.8
Nc1nonc1-c1nc2ccccc2n1CC(=O)Nc1cc(F)cc(F)c1 :: 25.4
Nc1nonc1-c1nc2ccccc2n1CC(=O)Nc1cc([N+](=O)[O-])cc([N+](=O)[O-])c1 :: 19.2
Nc1nonc1-c1nc2ccccc2n1CC(=O)Nc1ccc([N+](=O)[O-])c(Br)c1 :: 5.49
COc1cc(NC(=O)Cn2c(-c3nonc3N)nc3ccccc32)cc(OC)c1 :: 6.3
Nc1nonc1-c1nc2ccccc2n1CC(=O)Nc1ccc(F)cc1Br :: 0.73

Data request: Recorded IC50 at 24 h of `COC(=O)c1cc(NC(=O)Cn2c(-c3nonc3N)nc3ccccc32)cc(C(=O)OC)c1` , please.
Data returned: 40.5

---

Values of log10 of IC50 reported for UniProtKB P06276 appear below.
Sequence (P06276 whole entry): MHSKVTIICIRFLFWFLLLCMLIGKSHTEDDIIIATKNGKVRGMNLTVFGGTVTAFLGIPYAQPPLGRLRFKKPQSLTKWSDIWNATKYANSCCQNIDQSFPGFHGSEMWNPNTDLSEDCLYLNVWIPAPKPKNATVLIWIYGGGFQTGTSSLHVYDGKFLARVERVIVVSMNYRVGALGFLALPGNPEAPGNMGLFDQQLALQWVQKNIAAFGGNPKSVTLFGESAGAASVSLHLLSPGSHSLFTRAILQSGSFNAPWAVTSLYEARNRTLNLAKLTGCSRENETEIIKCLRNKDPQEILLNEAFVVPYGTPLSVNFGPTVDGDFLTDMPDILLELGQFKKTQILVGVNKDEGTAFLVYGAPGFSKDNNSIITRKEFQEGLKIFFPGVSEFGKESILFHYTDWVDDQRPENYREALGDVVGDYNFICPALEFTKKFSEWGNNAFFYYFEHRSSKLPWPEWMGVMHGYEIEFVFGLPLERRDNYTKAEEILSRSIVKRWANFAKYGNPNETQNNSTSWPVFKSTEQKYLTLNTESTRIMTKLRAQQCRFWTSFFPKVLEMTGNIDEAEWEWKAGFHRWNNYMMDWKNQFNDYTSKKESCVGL
Form field - Quantity: IC50; Unit: µM; Scale: log10

A selection of reference data follows.
Nc1nonc1-c1nc2ccccc2n1CC(=O)Nc1ccc(F)cc1Br :: -1.45
N#Cc1cc(Br)cc(NC(=O)Cn2c(-c3nonc3N)nc3ccccc32)c1 :: -1.34
Cc1cc(Br)cc(NC(=O)Cn2c(-c3nonc3N)nc3ccccc32)c1 :: -0.66
Nc1nonc1-c1nc2ccccc2n1CC(=O)Nc1cc([N+](=O)[O-])cc(C(F)(F)F)c1 :: -1.15
COc1cc(NC(=O)Cn2c(-c3nonc3N)nc3ccccc32)cc(OC)c1 :: -0.51
Nc1nonc1-c1nc2ccccc2n1CC(=O)Nc1cc(F)cc(Cl)c1 :: -0.81

Data request: # returns recorded log10 of IC50 (system: UniProtKB P06276) for `Nc1nonc1-c1nc2ccccc2n1CC(=O)Nc1cc(C(F)(F)F)cc(C(F)(F)F)c1`
Data returned: -0.03

Data request: # returns recorded log10 of IC50 (system: UniProtKB P06276) for `Nc1nonc1-c1nc2ccccc2n1CC(=O)Nc1cc(F)cc(Br)c1`
Data returned: -1.21

Data request: # returns recorded log10 of IC50 (system: UniProtKB P06276) for `Cc1cc(Cl)cc(NC(=O)Cn2c(-c3nonc3N)nc3ccccc32)c1`
Data returned: -1.00

Data request: # returns recorded log10 of IC50 (system: UniProtKB P06276) for `Cc1cc(C)cc(NC(=O)Cn2c(-c3nonc3N)nc3ccccc32)c1`
Data returned: -0.05

---

Experiment: Ratio of AUCt in ICR mouse brain to AUCt in ICR mouse plasma
Assay type: ADME, cell-free
Measured Property: Kp
Lab note: record the figure alone, no unit after it.

Data request: Recorded Kp of `N#Cc1cc(Br)cc(NC(=O)Cn2c(-c3nonc3N)nc3ccccc32)c1` , please.
Data returned: 0.31

---

Assay: MRT infinity in Sprague-Dawley rat at 10 mg/kg, po measured upto 1440 mins by LC/MS/MS analysis
Assay type: ADME, organism-based
Conditions: in vivo
Measured Property: MRT inf (h)
# output: bare number, implied unit h

Nc1nonc1-c1nc2ccccc2n1CC(=O)Nc1cnc2ccccc2c1 :: 7.37

Data request: Recorded MRT inf of `N#Cc1cc(Br)cc(NC(=O)Cn2c(-c3nonc3N)nc3ccccc32)c1` , please.
Data returned: 11.6
